System: HOP-62 NSCLC
ASSAY_PROCEDURE: NCI tumour cell line growth inhibition, 48 h
The reader will find reported TGI values listed item by item below.

{"MOLECULE": "CCSc1nc(COC(=O)NC)c(COC(=O)NC)n1C", "EXPERIMENTAL_TARGET": "HOP-62 NSCLC", "TGI": "> 100 µM"}
{"MOLECULE": "COc1ccc2c(c1)nc(N)c1c3cccnc3cn21", "EXPERIMENTAL_TARGET": "HOP-62 NSCLC", "TGI": "> 78.9 µM"}
{"MOLECULE": "Cc1nnc2sc(-c3ccc(-c4ccccc4Cl)o3)nn12", "EXPERIMENTAL_TARGET": "HOP-62 NSCLC", "TGI": "> 100 µM"}
{"MOLECULE": "C=C(N=[N+]=[N-])c1cn(C2CC(O)C(CO)O2)c(=O)[nH]c1=O (centres undefined)", "EXPERIMENTAL_TARGET": "HOP-62 NSCLC", "TGI": "> 100 µM"}

* * *

System: TK-10 renal
ASSAY_PROCEDURE: NCI tumour cell line growth inhibition, 48 h
Entries annotated with measured TGI

{"TEST_SMILES": "CN(N)/N=N/c1nc[nH]c1C(N)=O", "TGI": "> 100 µM"}
{"TEST_SMILES": "CCSc1nc(COC(=O)NC)c(COC(=O)NC)n1C", "TGI": "> 100 µM"}
{"TEST_SMILES": "NC1=Nc2ccccc2Sc2nnc(-c3ccc(Cl)cc3)n21", "TGI": "> 100 µM"}

* * *

System: HCT-116 colon
ASSAY_PROCEDURE: NCI tumour cell line growth inhibition, 48 h

{"COMPOUND": "O=C1C(=O)N(C2CCCCC2)C(=S)N1C1CCCCC1", "EXPERIMENTAL_TARGET": "HCT-116 colon", "TGI": "> 100 µM"}
{"COMPOUND": "CCO[C@@H]1C2C=CC(C2)[C@H]1[N+](=O)[O-] (some centres not stated)", "EXPERIMENTAL_TARGET": "HCT-116 colon", "TGI": "> 100 µM"}
{"COMPOUND": "Nc1nc(Nc2cccc(F)c2)nc2ccccc12", "EXPERIMENTAL_TARGET": "HCT-116 colon", "TGI": "46.4 µM"}
{"COMPOUND": "COC1CC(n2cnc3c(N)ncnc32)OC1CO (configuration not stated)", "EXPERIMENTAL_TARGET": "HCT-116 colon", "TGI": "> 100 µM"}
{"COMPOUND": "C/C1=C\\CC[C@@](C)(O)[C@@H]2CC3[C@@H](OC(=O)C34CC4)[C@@H](O2)[C@H](C)CCC1 (some centres not stated)", "EXPERIMENTAL_TARGET": "HCT-116 colon", "TGI": "30.1 µM"}
{"COMPOUND": "C[C@H](CSC(=O)c1ccccc1)C(=O)N1c2ccccc2C[C@H]1C(=O)O", "EXPERIMENTAL_TARGET": "HCT-116 colon", "TGI": "> 100 µM"}
{"COMPOUND": "Cc1cc(C)c(C)c(-n2[nH]c(=O)n(C)c2=O)c1C", "EXPERIMENTAL_TARGET": "HCT-116 colon", "TGI": "> 100 µM"}
{"COMPOUND": "O=C(O)c1cc2c(s1)C(=O)c1sccc1C2=O", "EXPERIMENTAL_TARGET": "HCT-116 colon", "TGI": "4.81 µM"}
{"COMPOUND": "Cc1ccc(C(=O)C#Cc2cn(C3CC(O)C(CO)O3)c(=O)[nH]c2=O)cc1 (configuration not stated)", "EXPERIMENTAL_TARGET": "HCT-116 colon", "TGI": "> 100 µM"}
{"COMPOUND": "O=C(CC(C(=O)c1ccsc1)c1ccccc1)c1cccs1 (configuration not stated)", "EXPERIMENTAL_TARGET": "HCT-116 colon", "TGI": "> 100 µM"}
{"COMPOUND": "COc1ccc(/C=C(\\NC(=O)c2ccccc2)C(=O)NN(C)c2ccnc3cc(Cl)ccc23)cc1OC", "EXPERIMENTAL_TARGET": "HCT-116 colon", "TGI": "> 100 µM"}
{"COMPOUND": "Cc1cccc(C)c1NC(=O)CCCC(=O)C1CC(=O)CCC1=O (configuration not stated)", "EXPERIMENTAL_TARGET": "HCT-116 colon", "TGI": "> 100 µM"}
{"COMPOUND": "CN(/N=C/c1cccs1)c1ccc([N+](=O)[O-])cc1[N+](=O)[O-]", "EXPERIMENTAL_TARGET": "HCT-116 colon", "TGI": "> 100 µM"}
{"COMPOUND": "CSc1nc(-c2ccccc2)c2c(n1)-c1ccccc1CC2", "EXPERIMENTAL_TARGET": "HCT-116 colon", "TGI": "> 100 µM"}
{"COMPOUND": "N#Cc1ccc(OCc2ccc3nc(-c4ccccc4)c(Cl)nc3c2)cc1", "EXPERIMENTAL_TARGET": "HCT-116 colon", "TGI": "> 100 µM"}
{"COMPOUND": "CS(=O)(=O)Nc1cc(-c2ccc3ncnc(Nc4ccc5c(cnn5Cc5ccc(F)cc5)c4)c3c2)cnc1Cl", "EXPERIMENTAL_TARGET": "HCT-116 colon", "TGI": "21.7 µM"}
{"COMPOUND": "CN(C)c1ccc(N=Nc2c([O-])ccc3ccccc23)cc1.[C-]#[O+].[C-]#[O+].[Ir]", "EXPERIMENTAL_TARGET": "HCT-116 colon", "TGI": "38.4 µM"}
{"COMPOUND": "CCCCCCCCCCCC1N=C(N)NC(CCCO)=C1C(=O)OC (configuration not stated)", "EXPERIMENTAL_TARGET": "HCT-116 colon", "TGI": "3.01 µM"}
{"COMPOUND": "COC(=O)C(=O)C(C(=O)C=C(C)C)C(=O)C(=O)Nc1cccc(C(C)=O)c1 (configuration not stated)", "EXPERIMENTAL_TARGET": "HCT-116 colon", "TGI": "> 100 µM"}
{"COMPOUND": "O=C(Nc1cc(Cl)c(Cl)cc1Cl)C(=O)C(C(=O)c1ccc(Cl)c(Cl)c1)C1OC(=O)c2ccccc21 (configuration not stated)", "EXPERIMENTAL_TARGET": "HCT-116 colon", "TGI": "28.8 µM"}
{"COMPOUND": "CCOC(=O)/C(C#N)=C1\\N[C@H](C(=O)OCC)CO1", "EXPERIMENTAL_TARGET": "HCT-116 colon", "TGI": "> 100 µM"}
{"COMPOUND": "Cc1ncc([N+](=O)[O-])n1CCNC(=O)CCCn1cnc([N+](=O)[O-])n1", "EXPERIMENTAL_TARGET": "HCT-116 colon", "TGI": "> 100 µM"}
